Tested on: NCI-H226
METHOD_NOTES: NCI tumour cell line growth inhibition, 48 h
Activity calls are given as the source filed them. Cut-off read from the data, not from the text of the source: active = GI50 up to about 1.1 µM and inactive = higher.
ENDPOINT: GI50

Requested field: GI50. Item: COC12CCCN1c1ccn(Cc3ccccc3)c(=O)c1C2=O (configuration not stated)
> 100 µM (inactive)

Please do the same for COc1ccc(C(=O)C(CC2C(=O)CC(C)(C)C(C(=O)C(=O)Nc3c(C)cccc3C)C2=O)c2ccc(OC)cc2)cc1 (configuration not stated) as well.
> 100 µM (inactive)

Please do the same for "O=S(=O)(c1ccc(Cl)cc1)c1ccccc1C1=NCCN1" as well.
> 100 µM (inactive)

Please do the same for "COc1cccc(C=O)c1[O-].COc1cccc(C=O)c1[O-].[Zn+2]" as well.
> 100 µM (inactive)

Please do the same for "COc1ccc(/C=C/C(=O)c2sc(NC(=S)NC(=O)c3ccc(Cl)cc3)nc2C)cc1OC" as well.
37.2 µM (inactive)

Please do the same for "COc1ccc(C2=NOP(c3ccccc3)(c3ccccc3)(c3ccccc3)C2)cc1" as well.
25.9 µM (inactive)

Please do the same for "O=c1c2c3c(sc2nc2n1N=CN(c1ccc(F)cc1)C2)CCCC3" as well.
> 100 µM (inactive)

Please do the same for CSC1(CC(=O)N2CCCCC2)C(=O)Nc2ccccc21 (configuration not stated) as well.
> 100 µM (inactive)

Please do the same for CC1(C)C(=O)C2(N)CCC1C2 (configuration not stated) as well.
> 100 µM (inactive)

Please do the same for CC1Cn2c(nc3ccccc32)NC1=O (configuration not stated) as well.
> 100 µM (inactive)

Please do the same for "CCCCCCc1cc2cc(-c3cn4c(n3)sc3ccccc34)c(=O)oc2cc1O" as well.
> 100 µM (inactive)

Please do the same for CCN1CCC(O)(c2ccc(O)cc2)C(C(=O)c2ccc(O)cc2)C1 (configuration not stated) as well.
29.3 µM (inactive)

Reference source for all entries: ChEMBL document CHEMBL1201862
